Reported melting point values for a set of compounds

Some solved cases for reference:
COc1ccc(-c2cc3cc(F)c(F)cc3[nH]2)cc1NC(=S)Nc1cccc(C(=O)O)c1    221 to 223 °C
CCCCCCCCCCCCS(=O)(=O)Nc1cc(-c2nc3cc(Cl)c(Cl)cc3[nH]2)ccc1OC    203 to 204 °C
COc1ccc(-c2cc3cc(F)c(F)cc3[nH]2)cc1NCc1cccc(C#N)c1    154 to 155 °C
COc1ccc(-c2cc3cc(Cl)c(Cl)cc3[nH]2)cc1NC(=S)Nc1cccc(C(=O)O)c1    216 to 218 °C
COc1ccc(-c2cc3cc(F)c(F)cc3[nH]2)cc1NCc1ccc([N+](=O)[O-])c(O)c1    170 to 171 °C
COc1ccc(-c2cc3ccccc3[nH]2)cc1NCc1ccc(O)c([N+](=O)[O-])c1    165 to 166 °C
COc1ccc(-c2cc3ccccc3[nH]2)cc1NC(=S)Nc1cccc(CC(=O)O)c1    174 to 175 °C

Turning to the following compound.
Incoming: Name the recorded melting point for `COc1ccc(-c2cc3cc(F)c(F)cc3[nH]2)cc1N` .
Outgoing: 210 to 211 °C

The values you see were collected from patent US6858739B2.
